The molecules listed here are annotated with their melting point.

Illustrative cases are given below, each with its answer.
| molecule | melting point |
| --- | --- |
| CCCCCCC(=N)NC(=S)Nc1ccc(SC)cc1 | 100 to 101 °C |
| NCc1ccc(CN2CCN(c3ccccc3)CC2)cc1 | 68 to 70 °C |
| N#Cc1c(N2CCc3ccccc3CC2)nc(CC(N)=O)[nH]c1=O | > 200 °C |
| CC(C)(C)C(=O)SCCNC(=O)CCNC(=O)OCc1ccccc1 | 87 to 88 °C |
| O=C(NC/C=C\COc1cc(CN2CCCC2)ccn1)c1ccc[nH]1 | 124 to 127 °C |

### Prompt Which value of melting point has been reported for `O=P(CN(O)Cc1ccccc1)(OCc1ccccc1)OCc1ccccc1` in the records?
### Response 62 to 64 °C

### Prompt Which value of melting point has been reported for `COC(=O)c1ccc(-c2ccc3cc(OCc4ccccc4)c(C45CC6CC(CC(C6)C4)C5)cc3c2)s1` in the records?
### Response 170 to 171 °C

### Prompt Which value of melting point has been reported for CC(Oc1ccc(OC(C)C(=O)O)cc1)C(=O)O (centres undefined) in the records?
### Response 235 to 240 °C

### Prompt Which value of melting point has been reported for CC(C)CC(CNOCc1ccccc1)C(=O)O (racemic) in the records?
### Response 73 to 75 °C

### Prompt Which value of melting point has been reported for O=C(O)c1ccc(CN2C(=O)C3(COc4cc5c(cc43)OCCO5)c3ccccc32)o1 (centres undefined) in the records?
### Response 192 to 195 °C

### Prompt Which value of melting point has been reported for `CCNC(=O)c1ccc(Oc2c(C)n(CC(=O)O)c3ccc(F)cc23)cc1` in the records?
### Response 220 to 222 °C

---

quantity: melting point

| smiles-entry | result |
| --- | --- |
| O=C(NCCO)c1ccc(C(=O)N2CCN(CCO)CC2)nc1 | 126 to 128 °C |
| CCCCCCCc1cnc(-c2ccc(C(=O)Oc3ccc(-c4ncc(CCCCC)cn4)cc3)cc2)nc1 | 97 °C |
| COc1cc(C=C2NC(=O)N(C)C2=O)ccc1O | 227 to 228 °C |

### Prompt Which value of melting point has been reported for `CCN(CC)c1ccc(C=O)c(OCCN2CCOCC2)c1` in the records?
### Response 107 to 109 °C

### Prompt Which value of melting point has been reported for `C[C@H](c1ncnc(Sc2ccc(Cl)cc2)c1F)[C@@](O)(Cn1cncn1)c1ccc(F)cc1F` in the records?
### Response 158 to 160 °C

---

quantity: melting point

Illustrative cases are given below, each with its answer.
| compound | melting point |
| --- | --- |
| Cc1nccn1C(C)CC(O)(c1ccccc1)c1ccccc1 (stereo not given) | 168 to 169 °C |
| O=C1c2c(ccc(F)c2Cl)-n2cnc(-c3noc(CCl)n3)c2[C@@H]2CCN12 | 214 to 217 °C |

### Prompt Which value of melting point has been reported for `Cn1ccc2c1CCn1ccnc1C2=C1CCN(CCNc2ncccn2)CC1` in the records?
### Response 202 °C

### Prompt Which value of melting point has been reported for `COc1ccc(CCNC(=O)CN(c2ccccc2)c2ccccc2)cc1OC` in the records?
### Response 88 to 93 °C

### Prompt Which value of melting point has been reported for `CN(C)CCCNC(=O)Cn1cnc(-c2ccccc2)c1-c1ccccc1` in the records?
### Response 92 to 94 °C

### Prompt Which value of melting point has been reported for `N#CCCNC(=O)Sc1ccccc1` in the records?
### Response 86 to 90 °C

### Prompt Which value of melting point has been reported for `CCCCOC(=O)c1ccc(N2CCN(S(C)(=O)=O)CC2)cc1` in the records?
### Response 145 to 150 °C

### Prompt Which value of melting point has been reported for `CCOC(=O)c1ccc(OCCCCCCc2cccc(O)c2O)cc1O` in the records?
### Response 63 to 68 °C

### Prompt Which value of melting point has been reported for `COc1cnc(C(=O)Nc2c(Cl)cncc2Cl)cc1OC1CCCC1` in the records?
### Response 129 to 130 °C

### Prompt Which value of melting point has been reported for `CCOC(=O)c1ccc(NCc2ccc(OCc3ccccc3)cc2)cc1` in the records?
### Response 144 to 146 °C
